Kindly state residual activity for each of the entries shown.
- TARGET UNDER TEST: MAPKAPK5 (human) (UniProt Q8IW41)
- Sequence (Q8IW41 whole entry, looked up): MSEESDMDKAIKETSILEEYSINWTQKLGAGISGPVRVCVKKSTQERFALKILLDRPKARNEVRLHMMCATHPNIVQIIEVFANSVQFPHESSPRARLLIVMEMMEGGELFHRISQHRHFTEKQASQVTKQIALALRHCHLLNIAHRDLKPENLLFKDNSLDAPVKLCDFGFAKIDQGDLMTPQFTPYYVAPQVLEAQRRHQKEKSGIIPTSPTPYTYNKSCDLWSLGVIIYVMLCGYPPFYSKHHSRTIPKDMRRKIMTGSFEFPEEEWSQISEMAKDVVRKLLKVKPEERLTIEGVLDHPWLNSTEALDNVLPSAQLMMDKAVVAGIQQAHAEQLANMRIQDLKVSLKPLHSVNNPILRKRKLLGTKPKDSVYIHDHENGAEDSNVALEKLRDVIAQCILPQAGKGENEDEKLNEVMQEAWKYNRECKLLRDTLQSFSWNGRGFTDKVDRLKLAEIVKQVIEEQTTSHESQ
- TEST: radiometric filter-binding kinase assay
- CONDITION DESCRIPTION: compound 0.1 µM
Give the figure together with its unit, number first.

Reference set (10 entries):
C=CC(=O)N1CCC[C@@H](n2nc(-c3ccc(Oc4ccccc4)cc3)c3c(N)ncnc32)C1 | 101%
COc1ccc2c(c1)c1c3c(c4c5ccccc5n(C)c4c1n2CC(O)CN(C)C)C(=O)NC3=O (stereo not drawn) | 104%
COc1ccc(-n2ncc3cnc(Nc4cc(OC)c(OC)c(OCCCN5CCN(C)CC5)c4)nc32)cc1 | 98%
Cc1ccc(Sc2cnc(Nc3cccc(Br)n3)s2)cc1C(=O)N1CCN(C(=O)CN)CC1 | 96%
CCc1cncnc1N1CCN(Cc2nc3cc(C(F)(F)F)ccc3[nH]2)CC1 | 114%
CN(C)C/C=C/C(=O)Nc1cccc(C(=O)Nc2ccc(Nc3nccc(-c4cccnc4)n3)cc2)c1 | 96%
COc1cc(O)c2c(c1)/C=C/C[C@H](O)[C@H](O)C(=O)/C=C\C[C@H](C)OC2=O | 66%
O=C(NCCCNc1nc(Nc2cccc(CN3CCOCC3)c2)ncc1C1CC1)C1CCC1 | 104%
O=C(Nc1nc2cc(C(F)(F)F)cc(NC3CC3)n2n1)c1cccnc1 | 112%
Cn1c(=O)c2c(ncn2C)n(C)c1=O | 96%

Answer for every listed entry: what is its residual activity? The entries follow.
1. O=C(O)c1ccc(-c2c[nH]c3ncc(-c4ccccc4)cc23)cc1C1CCCC1
2. CCCCCc1ccc(/C=C/[C@H](O)[C@@H](CO)NC)cc1
3. NC(=O)c1cc(-c2ccnc(NC3CCCCC3)c2)nc(N2CCNCC2)c1
4. Cc1cc(NC(=O)c2cccc(NC(=O)/C=C/CN(C)C)c2)ccc1Nc1nccc(-c2cccnc2)n1
5. CNC(=O)C1[C@H]2O[C@@](C)([C@@H]1N)n1c3ccccc3c3c4c(c5c6ccccc6n2c5c31)C(=O)NC4 (stereo partly drawn)

Marked response:
107%
89%
109%
92%
15%

---

Kindly state residual activity for each of the entries shown.
- Tested on: RPS6KB1 (human), P23443 [T412E]
- Sequence (P23443 whole entry T412E, looked up): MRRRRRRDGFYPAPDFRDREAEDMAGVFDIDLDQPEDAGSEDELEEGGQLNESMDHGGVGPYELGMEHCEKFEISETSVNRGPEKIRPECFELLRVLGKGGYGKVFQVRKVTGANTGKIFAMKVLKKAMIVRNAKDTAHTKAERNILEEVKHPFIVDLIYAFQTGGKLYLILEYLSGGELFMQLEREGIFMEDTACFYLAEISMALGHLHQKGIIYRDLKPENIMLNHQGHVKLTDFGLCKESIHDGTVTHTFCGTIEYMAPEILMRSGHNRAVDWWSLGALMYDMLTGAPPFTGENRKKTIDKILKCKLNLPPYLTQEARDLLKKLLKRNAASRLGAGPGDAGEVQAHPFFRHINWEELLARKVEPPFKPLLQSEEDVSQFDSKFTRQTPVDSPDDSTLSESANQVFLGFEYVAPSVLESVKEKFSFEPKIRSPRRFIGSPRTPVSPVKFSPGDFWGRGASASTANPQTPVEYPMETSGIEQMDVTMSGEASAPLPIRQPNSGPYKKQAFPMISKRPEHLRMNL
- TEST: radiometric filter-binding kinase assay
- CONDITION DESCRIPTION: compound 1.0 µM
Numbers only, in %.

Reference set (5 entries):
CCCCCc1ccc(/C=C/[C@H](O)[C@@H](CO)NC)cc1 | 108
O=c1c(O)c(-c2ccc(O)c(O)c2)oc2cc(O)c(O)c(O)c12 | 104
NC(=O)c1cc(-c2ccnc(NC3CCCCC3)c2)nc(N2CCNCC2)c1 | 96
COc1ccc2c(c1)c1c3c(c4c5ccccc5n(C)c4c1n2CC(O)CN(C)C)C(=O)NC3=O (stereo not given) | 2
Cc1cc(SCc2sc(-c3ccc(C(F)(F)F)cc3)nc2C)ccc1OCC(=O)O | 98

Answer for every listed entry: what is its residual activity? The entries follow.
1. NC(=O)c1ccc(-c2ccc(Oc3cncc4sc(-c5nn[nH]n5)cc34)cc2)cc1
2. C[C@H]1CCCC(=O)CCC/C=C/c2cc(O)cc(O)c2C(=O)O1
3. NC1(c2ccc(-c3nc4ccn5c(=O)[nH]nc5c4cc3-c3ccccc3)cc2)CCC1
4. NC(=O)Nc1ccc2c(c1)/C(=C/c1cc(-c3cccnc3)c[nH]1)C(=O)N2
5. O=C(Nc1nc2cc(C(F)(F)F)cc(NC3CC3)n2n1)c1cccnc1

Marked response:
[96, 106, 84, 32, 103]

---

- TARGET UNDER TEST: MAP4K3 (human)
- TEST: radiometric filter-binding kinase assay
- CONDITION DESCRIPTION: compound 0.1 µM
Kindly state residual activity for each of the entries shown.
Give the figure together with its unit, number first.

Reference set (4 entries):
Cc1ccc(-c2ccc3c(ccc4sc5c(c43)NC[C@@H](C)NC5=O)n2)cn1 | 98%
CN1CCN(CCOc2cc(OC3CCOCC3)c3c(Nc4c(Cl)ccc5c4OCO5)ncnc3c2)CC1 | 85%
CNC(=O)C1[C@H]2O[C@@](C)([C@@H]1N)n1c3ccccc3c3c4c(c5c6ccccc6n2c5c31)C(=O)NC4 (stereo not given in full) | 2%
CC1=C(CO)C(=O)O[C@@H]([C@@H](C)[C@H]2CC[C@H]3[C@@H]4C[C@H]5O[C@]56[C@@H](O)C=CC(=O)[C@]6(C)C4CC[C@]23C)C1 (stereo not given in full) | 81%

Query compound follows.
Exam item: Which residual activity value is on record for CCn1c(-c2nonc2N)nc2cncc(CNC3CCNCC3)c21 ?
Marked response: 99%

---

- TARGET UNDER TEST: EEF2K (human) (UniProt O00418)
- Sequence (O00418 whole entry, looked up): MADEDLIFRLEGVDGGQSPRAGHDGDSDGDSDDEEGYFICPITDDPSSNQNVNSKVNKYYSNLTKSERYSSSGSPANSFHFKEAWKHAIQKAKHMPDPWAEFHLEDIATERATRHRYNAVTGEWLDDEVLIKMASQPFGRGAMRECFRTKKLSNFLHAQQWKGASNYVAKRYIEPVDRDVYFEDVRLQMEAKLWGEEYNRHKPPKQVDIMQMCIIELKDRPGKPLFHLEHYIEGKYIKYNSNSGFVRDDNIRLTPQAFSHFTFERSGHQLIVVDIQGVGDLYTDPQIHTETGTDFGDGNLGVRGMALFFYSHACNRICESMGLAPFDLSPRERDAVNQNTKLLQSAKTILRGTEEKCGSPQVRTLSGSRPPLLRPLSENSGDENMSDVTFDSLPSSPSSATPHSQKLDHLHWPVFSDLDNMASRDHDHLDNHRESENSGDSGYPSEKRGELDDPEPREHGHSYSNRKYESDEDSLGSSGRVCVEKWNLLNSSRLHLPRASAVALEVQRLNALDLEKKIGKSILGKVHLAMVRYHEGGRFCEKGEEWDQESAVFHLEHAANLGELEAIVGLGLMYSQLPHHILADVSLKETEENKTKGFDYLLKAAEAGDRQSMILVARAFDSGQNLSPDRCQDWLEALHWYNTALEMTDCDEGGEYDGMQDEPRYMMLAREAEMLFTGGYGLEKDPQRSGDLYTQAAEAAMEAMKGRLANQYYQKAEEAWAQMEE
- TEST: radiometric filter-binding kinase assay
- CONDITION DESCRIPTION: compound 0.1 µM
Kindly state residual activity for each of the entries shown.
One number for each entry, in %.

Reference set (4 entries):
CNC(=O)C1[C@H]2O[C@@](C)([C@@H]1N)n1c3ccccc3c3c4c(c5c6ccccc6n2c5c31)C(=O)NC4 (some centres undefined) | 97
C=CC(=O)N1CCC[C@@H](n2nc(-c3ccc(Oc4ccccc4)cc3)c3c(N)ncnc32)C1 | 88
COc1ccc2c(c1)c1c3c(c4c5ccccc5n(C)c4c1n2CC(O)CN(C)C)C(=O)NC3=O (centres undefined) | 106
Cc1ccc(Sc2cnc(Nc3cccc(Br)n3)s2)cc1C(=O)N1CCN(C(=O)CN)CC1 | 113

Answer for every listed entry: what is its residual activity? The entries follow.
1. COc1cc(O)c2c(c1)[C@H]1OC1C[C@H](O)[C@H](O)C(=O)/C=C\C[C@H](C)OC2=O (some centres undefined)
2. NC1(c2ccc(-c3nc4ccn5c(=O)[nH]nc5c4cc3-c3ccccc3)cc2)CCC1

Marked response:
1. 103
2. 101

Answer for every listed entry: what is its residual activity? The entries follow.
1. CN1CCN(CCOc2cc(OC3CCOCC3)c3c(Nc4c(Cl)ccc5c4OCO5)ncnc3c2)CC1
2. CN(C)C/C=C/C(=O)Nc1cccc(C(=O)Nc2ccc(Nc3nccc(-c4cccnc4)n3)cc2)c1
3. CNc1nc(-c2ccc3c(N)n[nH]c3c2)cc(N2C[C@@H](C(=O)NC3CCCCC3)CC[C@H]2C)n1

Marked response:
65
97
100

---

Kindly state residual activity for each of the entries shown.
- TARGET UNDER TEST: CDK2 CCNA2 (human) (UniProt P20248+P24941)
- TEST: radiometric filter-binding kinase assay
- CONDITION DESCRIPTION: compound 10.0 µM
Numbers only, in %.

O=C(O)c1cc(N=Nc2ccc(S(=O)(=O)Nc3ccccn3)cc2)ccc1O | 107
CN1C(=O)[C@@H](Cc2c[nH]c3ccccc23)NC1=S | 93
c1ccc2c(-c3cnn4cc(-c5ccc(N6CCNCC6)cc5)cnc34)ccnc2c1 | 34
NC(=O)c1c(NC(=O)C2CC2)sc2c1CCCC2 | 48

Answer for every listed entry: what is its residual activity? The entries follow.
1. CCn1c(-c2nonc2N)nc2cncc(CNC3CCNCC3)c21
2. O=C(NOCC(O)CO)c1ccc(F)c(F)c1Nc1ccc(I)cc1Cl (stereo unspecified)

Marked response:
1: 56; 2: 97

---

- Test system: OXSR1 (human), O95747 [T185E]
- Sequence (O95747 whole entry T185E, looked up): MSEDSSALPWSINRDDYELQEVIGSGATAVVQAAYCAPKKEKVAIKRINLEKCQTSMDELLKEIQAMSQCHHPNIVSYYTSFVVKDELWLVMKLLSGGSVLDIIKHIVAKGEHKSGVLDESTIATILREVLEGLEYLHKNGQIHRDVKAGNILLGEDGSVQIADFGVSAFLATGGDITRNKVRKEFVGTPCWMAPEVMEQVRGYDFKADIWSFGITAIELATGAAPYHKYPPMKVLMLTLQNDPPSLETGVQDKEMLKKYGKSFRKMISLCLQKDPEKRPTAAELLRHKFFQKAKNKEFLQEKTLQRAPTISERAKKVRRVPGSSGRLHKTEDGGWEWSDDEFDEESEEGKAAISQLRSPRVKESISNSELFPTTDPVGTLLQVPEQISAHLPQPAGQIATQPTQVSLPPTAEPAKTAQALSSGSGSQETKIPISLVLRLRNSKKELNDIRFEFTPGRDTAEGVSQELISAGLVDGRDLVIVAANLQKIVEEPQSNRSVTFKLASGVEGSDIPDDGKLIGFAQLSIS
- TEST: radiometric filter-binding kinase assay
- CONDITION DESCRIPTION: compound 0.01 µM
MEASURE: residual activity (%)
One number for each entry, in %.

COc1ccc(N(C(=O)Nc2c(C)cccc2C)c2cc(Nc3ccc(N4CCN(C)CC4)cc3)ncn2)c(OC)c1 | 101
COc1cc(O)c2c(c1)[C@H]1OC1C[C@H](O)[C@H](O)C(=O)/C=C\C[C@H](C)OC2=O (some centres undefined) | 104

Answer for every listed entry: what is its residual activity? The entries follow.
1. O=C(Nc1nc2cc(C(F)(F)F)cc(NC3CC3)n2n1)c1cccnc1
2. CNC(=O)C1[C@H]2O[C@@](C)([C@@H]1N)n1c3ccccc3c3c4c(c5c6ccccc6n2c5c31)C(=O)NC4 (some centres undefined)

Marked response:
[83, 75]

---

- TARGET UNDER TEST: BRSK1 (human)
- TEST: radiometric filter-binding kinase assay
- CONDITION DESCRIPTION: compound 1.0 µM
MEASURE: residual activity (%)
One number for each entry, in %.

O=C(Nc1nc2cc(C(F)(F)F)cc(NC3CC3)n2n1)c1cccnc1 | 95
O=C(NCCCNc1nc(Nc2cccc(CN3CCOCC3)c2)ncc1C1CC1)C1CCC1 | 82
COc1cc(O)c2c(c1)[C@H]1OC1C[C@H](O)[C@H](O)C(=O)/C=C\C[C@H](C)OC2=O (some centres undefined) | 82

Answer for every listed entry: what is its residual activity? The entries follow.
1. Nc1cccc2c1CN(C1CCC(=O)NC1=O)C2=O (centres undefined)
2. NC(=O)c1ccc(-c2ccc(Oc3cncc4sc(-c5nn[nH]n5)cc34)cc2)cc1

Marked response:
[84, 110]

Answer for every listed entry: what is its residual activity? The entries follow.
1. CNC(=O)C1[C@H]2O[C@@](C)([C@@H]1N)n1c3ccccc3c3c4c(c5c6ccccc6n2c5c31)C(=O)NC4 (some centres undefined)
2. CCCCCc1ccc(/C=C/[C@H](O)[C@@H](CO)NC)cc1
3. COc1cc(C(=O)N2CCOCC2)c(F)cc1Nc1ncc(C(F)(F)F)c(NC2CC2)n1
4. FC(F)(F)c1ccc(-c2ccc(Oc3cncc4sc(-c5nn[nH]n5)cc34)cc2)cc1
5. O=C(Nc1ccccc1-c1cn2c(CN3CCNCC3)csc2n1)c1cnc2ccccc2n1
6. NCC(=O)Nc1ccc(-n2nc(C(F)(F)F)cc2-c2ccc3c(ccc4ccccc43)c2)cc1
7. Cc1ccc(-c2ccc3c(ccc4sc5c(c43)NC[C@@H](C)NC5=O)n2)cn1

Marked response:
1
111
85
138
94
83
55
